Hi there, I'd appreciate the recorded IC50 for every entry that follows.
Target sequence: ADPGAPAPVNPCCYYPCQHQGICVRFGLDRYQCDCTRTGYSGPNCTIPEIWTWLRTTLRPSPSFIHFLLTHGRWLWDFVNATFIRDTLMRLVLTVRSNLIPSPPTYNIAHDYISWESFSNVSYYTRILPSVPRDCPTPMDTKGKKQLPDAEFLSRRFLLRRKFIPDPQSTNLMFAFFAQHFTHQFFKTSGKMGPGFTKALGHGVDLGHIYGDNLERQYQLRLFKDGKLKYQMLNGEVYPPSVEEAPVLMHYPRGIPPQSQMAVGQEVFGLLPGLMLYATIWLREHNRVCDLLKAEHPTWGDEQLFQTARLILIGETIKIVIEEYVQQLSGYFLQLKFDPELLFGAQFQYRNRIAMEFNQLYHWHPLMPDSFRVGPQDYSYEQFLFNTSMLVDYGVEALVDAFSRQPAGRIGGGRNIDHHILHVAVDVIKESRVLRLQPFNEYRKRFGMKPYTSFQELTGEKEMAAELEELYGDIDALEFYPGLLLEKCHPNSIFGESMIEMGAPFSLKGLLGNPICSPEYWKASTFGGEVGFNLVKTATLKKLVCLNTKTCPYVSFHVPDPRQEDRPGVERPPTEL
One number for each entry, in µM.

Check out these entries, answers already filled in.
compound	IC50 [µM]
CC(=NNC(=O)c1ccccc1O)c1nnn(-c2ccc(S(N)(=O)=O)cc2)c1C [Compound 6g]	6.67
CC(=NNC(=O)c1ccccc1O)c1nnn(-c2ccc(S(=O)(=O)Nc3nccs3)cc2)c1C [Compound 6h]	8.27
CC(=NNC(=O)c1ccccc1O)c1nnn(-c2ccc(S(=O)(=O)Nc3nccc(C)n3)cc2)c1C [Compound 6j]	12.5

List reported IC50 for each of these compounds:
1. CC(=NNC(=O)C(C)c1ccc(CC(C)C)cc1)c1nnn(-c2ccc(S(=O)(=O)Nc3nccs3)cc2)c1C (centres unmarked) [Compound 6b]
2. CC(=NNC(=O)Cc1ccccc1Nc1c(Cl)cccc1Cl)c1nnn(-c2ccc(S(=O)(=O)Nc3nccs3)cc2)c1C [Compound 6e]

1. 13.2
2. 10.2
